The measured values listed here are drawn from patent US20180066066A1.

- Test System: T1, Mouse HER3 ECD (mouse, UniProt Q61526 20-641)
- T1 construct: extracellular domain; also called mouse HER3 ECD domains
- T1 sequence (Q61526 20-641): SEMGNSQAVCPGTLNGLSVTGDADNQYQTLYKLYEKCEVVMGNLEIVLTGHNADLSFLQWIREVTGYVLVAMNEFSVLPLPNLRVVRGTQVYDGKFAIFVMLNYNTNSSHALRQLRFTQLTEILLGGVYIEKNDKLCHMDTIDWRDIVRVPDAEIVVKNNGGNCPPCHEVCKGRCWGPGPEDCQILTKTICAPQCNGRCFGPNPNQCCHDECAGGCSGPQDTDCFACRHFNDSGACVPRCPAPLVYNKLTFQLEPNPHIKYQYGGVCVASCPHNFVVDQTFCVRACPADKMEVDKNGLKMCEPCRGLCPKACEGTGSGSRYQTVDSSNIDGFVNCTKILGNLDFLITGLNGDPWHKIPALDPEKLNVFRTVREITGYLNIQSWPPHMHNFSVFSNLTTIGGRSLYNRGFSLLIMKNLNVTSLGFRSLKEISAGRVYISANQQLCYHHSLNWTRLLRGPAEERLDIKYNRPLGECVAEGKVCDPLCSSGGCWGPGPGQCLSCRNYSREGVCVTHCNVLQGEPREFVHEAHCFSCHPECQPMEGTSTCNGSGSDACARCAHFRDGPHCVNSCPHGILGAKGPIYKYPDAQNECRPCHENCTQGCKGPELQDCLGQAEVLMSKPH
- Measurement Description: ELISA on mouse HER3 ECD
Parameter Measured: EC50 (ng/mL)
Give just the numeric value; ng/mL need not be written.

q: Return EC50 for the following binder: HER3-hMab-A10 (antibody, V domains shown) VH: QVQLVESGGGLVQPGGSLRLSCSASGFSFSASYYIYWVRQAPGKGLEYIAYITGDDDKRTYYANWAKGRFTISRDTSKNTVYLQMNSLRAEDTAVYYCTRNLPDELWGPGTLVTVSS VL: DIQMTQTPSTLSASVGDRVTITCQSSESVYSYKNLAWYQQKPGKPPKLLIWQASRLSSGVPSRFSGSGSGTEFTLTISSLQPDDFATYYCQGTYYSSAWDFVFGGGTKVEIK
a: 5.4

q: Hello, please tell me recorded EC50 for this one: HER3-hMab-A11 (antibody, V domains shown) VH: QVQLVESGGGLVQPGGSLRLSCSASGFSFSASYYIYWVRQAPGKGLEYIAYITGDDDKRTYYANWAKGRFTISRDNSKNTVYLQMNSLRAEDTAVYYCTRNLPDELWGPGTLVTVSS VL: QAQMTQTPSTLSASVGDRVTITCQSSESVYSYKNLAWYQQKPGKPPKLLIWQASRLSSGVPSRFSGSGSGTEFTLTISSLQPDDFATYYCQGTYYSSAWDFVFGGGTKVEIK
a: 7.9

q: Using the record for HER3-hMab-A9 (antibody, V domains shown) VH: QVQLVESGGGLVQPGGSLRLSCSASGFSFSASYYIYWVRQAPGKGLEYIAYITGDDDKRTYYANWAKGRFTISRDNSKNTVYLQMNSLRAEDTAVYYCTRNLPDELWGPGTLVTVSS VL: DIQMTQTPSTLSASVGDRVTITCQSSESVYSYKNLAWYQQKPGKPPKLLIWQASRLSSGVPSRFSGSGSGTEFTLTISSLQPDDFATYYCQGTYYSSAWDFVFGGGTKVEIK , state its measured EC50.
a: 4.3

q: Answer with the recorded EC50 for the binder listed here: HER3-hMab-A12 (antibody, V domains shown) VH: QVQLVESGGGLVQPGGSLRLSCSASGFSFSASYYIYWVRQAPGKGLEYIAYITGDDDKRTYYANWAKGRFTISRDTSKNTVYLQMNSLRAEDTAVYYCTRNLPDELWGPGTLVTVSS VL: QAQMTQTPSTLSASVGDRVTITCQSSESVYSYKNLAWYQQKPGKPPKLLIWQASRLSSGVPSRFSGSGSGTEFTLTISSLQPDDFATYYCQGTYYSSAWDFVFGGGTKVEIK
a: 6.7
